DP values for the compounds below.
# Test method notes: Stability: degradation products (DP) and appearance (color) under stress conditions
# Type: physicochemical
# Condition description: 1-2 weeks 50° C., tight container; 1% in mixture 1
Respond with the bare value in %.

Completed entries (count: 3):
>>> df
                                   compound  data_value
0  Cn1c(Nc2ccc(C(F)(F)F)cc2)nc2cc(Oc3ccnc(-c4ncc(C(F)(F)F)[nH]4)c3)ccc21.O=C(O)/C=C\C(=O)O [Maleate]         0.4
1  CS(=O)(=O)O.Cn1c(Nc2ccc(C(F)(F)F)cc2)nc2cc(Oc3ccnc(-c4ncc(C(F)(F)F)[nH]4)c3)ccc21 [Mesylate]         0.5
2  CCS(=O)(=O)O.Cn1c(Nc2ccc(C(F)(F)F)cc2)nc2cc(Oc3ccnc(-c4ncc(C(F)(F)F)[nH]4)c3)ccc21 [Esylate]         0.5

Lab note: next compound to report on.
Form field: reported DP of Cn1c(Nc2ccc(C(F)(F)F)cc2)nc2cc(Oc3ccnc(-c4ncc(C(F)(F)F)[nH]4)c3)ccc21 0.7
